Test: Half life in human plasma at 100 uM by HPLC analysis
Assay type: ADME, cell-free
quantityName: half-life at 100 µM (h)
Report as a plain number; the unit h is understood.

Lookup: Give recorded half-life at 100 µM. CC(C(=O)OCCC(=O)NCc1ccccc1)c1ccc(-c2ccccc2)c(F)c1 (stereo unspecified)
Found: 1.83

---

Assay: Half life in human plasma at 125 uM by HPLC analysis
Format: ADME, cell-free
quantityName: half-life at 125 µM (min)
Report as a plain number; the unit min is understood.

Lookup: Give recorded half-life at 125 µM. COc1ccc2cc([C@H](C)C(=O)OCCC(=O)NCc3ccccc3)ccc2c1
Found: 4.7
